molecular target: native human TRPA1 receptors (Homo sapiens); construct: stably expressing native human TRPA1 receptors were used; endogenous in cells; host or cells: A549 human lung adenocarcinoma epithelial cell line; assay: PF-4840154 (1 μM)-induced Ca2+ fluorescence measurements in A549 cell line; type: cell-based; settings: 10 μM compound against 1 μM PF-4840154, A549 cells
Sequence (O75762 whole entry): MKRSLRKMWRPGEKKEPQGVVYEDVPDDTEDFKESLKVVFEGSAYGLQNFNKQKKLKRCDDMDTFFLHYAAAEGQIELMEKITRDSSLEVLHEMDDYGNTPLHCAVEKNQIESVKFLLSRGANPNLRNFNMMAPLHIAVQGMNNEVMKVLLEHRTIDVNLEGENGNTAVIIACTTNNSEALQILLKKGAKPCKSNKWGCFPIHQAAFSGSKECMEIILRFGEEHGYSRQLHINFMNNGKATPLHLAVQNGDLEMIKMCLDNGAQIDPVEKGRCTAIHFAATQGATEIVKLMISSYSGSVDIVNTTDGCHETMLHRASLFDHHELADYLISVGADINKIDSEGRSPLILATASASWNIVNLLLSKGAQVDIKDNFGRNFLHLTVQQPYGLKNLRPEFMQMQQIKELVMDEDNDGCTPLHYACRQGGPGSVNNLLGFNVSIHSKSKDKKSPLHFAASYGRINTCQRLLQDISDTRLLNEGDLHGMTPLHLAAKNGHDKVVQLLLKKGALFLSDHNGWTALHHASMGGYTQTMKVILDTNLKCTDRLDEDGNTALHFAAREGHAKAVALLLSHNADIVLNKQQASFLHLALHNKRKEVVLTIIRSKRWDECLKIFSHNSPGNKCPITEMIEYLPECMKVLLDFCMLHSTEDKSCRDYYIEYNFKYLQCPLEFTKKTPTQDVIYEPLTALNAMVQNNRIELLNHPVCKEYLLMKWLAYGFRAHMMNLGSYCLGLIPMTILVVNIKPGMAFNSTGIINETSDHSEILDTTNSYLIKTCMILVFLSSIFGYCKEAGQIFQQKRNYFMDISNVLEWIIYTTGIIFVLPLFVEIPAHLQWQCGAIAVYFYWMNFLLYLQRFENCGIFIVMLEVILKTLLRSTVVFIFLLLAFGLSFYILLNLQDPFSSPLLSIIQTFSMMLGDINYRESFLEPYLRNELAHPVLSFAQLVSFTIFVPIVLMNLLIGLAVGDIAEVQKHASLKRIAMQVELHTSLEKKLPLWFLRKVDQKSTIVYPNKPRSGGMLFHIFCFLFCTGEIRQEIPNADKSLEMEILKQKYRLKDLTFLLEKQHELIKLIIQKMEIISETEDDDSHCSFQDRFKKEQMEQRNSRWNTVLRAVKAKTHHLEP
Measured inhibition at 10 µM, listed per entry for reference.
Give your result in % as a bare value.

[
  {
    "CHEM_SMILES": "CCN(C1(C(=O)NCc2ccnc(-c3ccc(C(F)(F)F)cc3)c2)CC1)S(=O)(=O)c1ccc(Cl)s1",
    "UNIT_TEXT": "%",
    "TEST_RESULT": 97
  }
]

Query string: Return inhibition at 10 µM measured with native human TRPA1 receptors (Homo sapiens) given this molecule: C=C(C(=O)NCc1cc(-c2ccc(OC(F)(F)F)cc2)nc(N2CCOCC2)c1)N(CC)S(=O)(=O)c1ccc(Cl)cc1
Result string: 98

Query string: What about this molecule? C=C(C(=O)NCc1cc(-c2ccc(C(F)(F)F)cc2)nc(-c2ccc(C(F)(F)F)cc2)c1)N(CC)S(=O)(=O)c1ccc(Cl)cc1
Result string: 100

Query string: Repeat with CCN(C1(C(=O)NCc2cc(-c3ccc(C(F)(F)F)cc3)ccn2)CC1)S(=O)(=O)c1ccc(F)cc1
Result string: 100

Query string: Okay, and C=C(C(=O)NCc1cc[n+]([O-])c(-c2ccc(C(F)(F)F)cc2)c1)N(CC)S(=O)(=O)c1ccc(F)cc1 ?
Result string: 47

Query string: What do you have for CCN(C1(C(=O)NCc2cc(OC(C)C)nc(-c3ccc(C(F)(F)F)cc3)c2)CC1)S(=O)(=O)c1ccc(F)cc1 ?
Result string: 98

Query string: Likewise for C=C(C(=O)NCc1cccc(-c2ccc(C(F)(F)F)cc2)c1)N(C)S(=O)(=O)c1ccc(Cl)cc1 ?
Result string: 98
